I'd be grateful if you could share measured % Positive cells for these entries.
- measured-on: T1, human CCR8 (human, UniProt P51685 1-355)
- T1 construct: Native CCR8 on human PBMC (CCR8+ CD3+ or CCR8+ CD4+ lymphocytes); also called chemokine (C-C motif) receptor 8
- run-description: flow blocking, PBMC CCR8+CD4+; competitor PE-433H
All answers are understood in %, so give the number only.

Fill in: % Positive cells of AB14 (antibody, V domains shown, Hybridoma monoclonal; Same VH/VL entries as AB15; also called antibody 14; clone 14) VH: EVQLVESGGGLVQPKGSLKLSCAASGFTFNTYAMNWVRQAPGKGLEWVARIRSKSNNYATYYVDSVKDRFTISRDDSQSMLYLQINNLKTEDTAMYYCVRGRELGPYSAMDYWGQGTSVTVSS VL: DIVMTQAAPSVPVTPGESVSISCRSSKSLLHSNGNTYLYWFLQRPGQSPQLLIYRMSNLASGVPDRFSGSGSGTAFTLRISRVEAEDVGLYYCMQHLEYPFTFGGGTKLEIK is ___
1.36

Fill in: % Positive cells of AB11 (antibody, V domains shown, Hybridoma monoclonal; also called antibody 11; clone 11) VH: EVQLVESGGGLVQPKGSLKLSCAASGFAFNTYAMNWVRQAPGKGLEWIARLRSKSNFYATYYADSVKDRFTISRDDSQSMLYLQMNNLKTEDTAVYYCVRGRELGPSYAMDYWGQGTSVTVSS VL: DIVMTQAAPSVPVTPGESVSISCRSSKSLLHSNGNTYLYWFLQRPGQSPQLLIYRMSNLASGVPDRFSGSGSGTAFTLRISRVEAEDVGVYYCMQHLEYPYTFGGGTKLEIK is ___
1.08

Fill in: % Positive cells of AB4 (antibody, V domains shown, Hybridoma monoclonal; also called antibody 4; clone 4) VH: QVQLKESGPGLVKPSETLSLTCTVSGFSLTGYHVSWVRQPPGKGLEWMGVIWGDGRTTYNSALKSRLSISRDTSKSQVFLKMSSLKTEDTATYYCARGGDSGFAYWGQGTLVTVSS VL: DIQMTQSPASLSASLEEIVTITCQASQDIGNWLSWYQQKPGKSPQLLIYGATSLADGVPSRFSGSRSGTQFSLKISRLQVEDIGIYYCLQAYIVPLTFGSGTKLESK is ___
1.74
